Below are IC50 measurements against Serine/threonine-protein kinase mTOR (Homo sapiens, UniProt P42345) drawn from the literature.

Field: example entries. Status: answers known.
>  <Compound>
COc1ccc(-c2ccc(-c3cnn4c5c(c(C6CC7CCC(C6)N7C(=O)CO)nc34)C(=O)CCN5)cn2)cc1F (stereo not shown)

>  <IC50>
< 10 nM

$$$$
>  <Compound>
CCOc1cc(-c2cccc(NS(=O)(=O)CCCF)c2F)cc2c(N3CCOC[C@@H]3C)nc(-c3cnc(N)nc3)nc12

>  <IC50>
100 to 1000 nM

$$$$
>  <Compound>
CNc1cc(-c2ccc3ncc4c(c3c2)n(-c2cn(C)nc2C)c(=O)n4C)cnc1F

>  <IC50>
8 nM

$$$$
>  <Compound>
CO[C@@H]1CC[C@H](Cn2c(=O)[nH]c3ncc(-c4cnc5[nH]cc(Cl)c5c4C)cc32)OC1

>  <IC50>
< 50 nM

$$$$
>  <Compound>
CN(C)C(=O)c1ccc(NC(=O)Nc2ccc(-c3nc(N4CCOCC4)c4ncc(-c5ccc(CO)o5)cc4n3)cc2F)cc1

>  <IC50>
50 to 200 nM

$$$$

What reported IC50 corresponds to Cc1cncc(-c2ccc3ncc4c(c3c2)n(-c2cn(C)nc2C)c(=O)n4C)c1 on Serine/threonine-protein kinase mTOR (Homo sapiens, UniProt P42345)?
37 nM

# returns recorded IC50 (system: Serine/threonine-protein kinase mTOR (Homo sapiens, UniProt P42345)) for CC(C)n1c(=O)n(C)c2nnc3cc(F)c(-c4ccc(OCCCN5CCC(F)CC5)nc4)cc3c21
> 10000 nM
